Experiment: UV filters dispersion: dispersibility of a solid UV filter in ester oils
Format: physicochemical
Design: key: D=homogeneous dispersion; S=sediment deposit
Conditions: 10% TiO2, storage 0 hours at 25° C.

compound	Filters dispersion t0 10%
CCCCCCCCC(=O)OCC(C)(C)COC(=O)CCCCCCCC [Neopentyl glycol dipelargonate]	D
CCCCCCCCC(=O)OCC(COC(=O)CCCCCCCC)(COC(=O)CCCCCCCC)COC(=O)CCCCCCCC [Pentaerythritol tetrapelargonate]	D
CCCCCCCCC(=O)OCC(COC(=O)CCCCCCCC)OC(=O)CCCCCCCC [Glycerol tripelargonate]	D
CC(C)CCCCCCOC(=O)CCCCCC(C)C [Isononyl Isononanoate, reference compound]	D

###

Experiment: Pigment dispersion: wet point and flow point
Type: physicochemical
Settings: grams per 100 g of pigment, Black Iron Oxide CI77499
valueKind: Fp (flow point), amount of ester oil needed (g)

compound	quantitativeReadout
CC(C)CCCCCCOC(=O)CCCCCC(C)C [Isononyl Isononanoate, reference compound]	145.00
CCCCCCCCC(=O)OCC(COC(=O)CCCCCCCC)(COC(=O)CCCCCCCC)COC(=O)CCCCCCCC [Pentaerythritol tetrapelargonate]	132.00

(A) CCCCCCCCC(=O)OCC(C)(C)COC(=O)CCCCCCCC [Neopentyl glycol dipelargonate]
(B) CCCCCCCCC(=O)OCC(COC(=O)CCCCCCCC)OC(=O)CCCCCCCC [Glycerol tripelargonate]
Which record would sort first by descending Fp (flow point), amount of ester oil needed, A or B ? Use the label to indicate which entry you chose. A

###

Assay: UV filters dispersion: dispersibility of a solid UV filter in ester oils
Type: physicochemical
Design: key: D=homogeneous dispersion; S=sediment deposit
Details: 1% TiO2, storage 24 hours at 25° C.

compound	Filters dispersion t24 1%
CCCCCCCCC(=O)OCC(COC(=O)CCCCCCCC)(COC(=O)CCCCCCCC)COC(=O)CCCCCCCC [Pentaerythritol tetrapelargonate]	D
CCCCCCCCC(=O)OCC(C)(C)COC(=O)CCCCCCCC [Neopentyl glycol dipelargonate]	S/D
CC(C)CCCCCCOC(=O)CCCCCC(C)C [Isononyl Isononanoate, reference compound]	S
CCCCCCCCC(=O)OCC(COC(=O)CCCCCCCC)OC(=O)CCCCCCCC [Glycerol tripelargonate]	D

###

Assay: Pigment dispersion: wet point and flow point
Type: physicochemical
Conditions: grams per 100 g of pigment, Black Iron Oxide CI77499
valueKind: Wp (wet point), amount of ester oil needed (g)

compound	units	quantitativeReadout
CC(C)CCCCCCOC(=O)CCCCCC(C)C [Isononyl Isononanoate, reference compound]	g	50.00
CCCCCCCCC(=O)OCC(C)(C)COC(=O)CCCCCCCC [Neopentyl glycol dipelargonate]	g	61.00
CCCCCCCCC(=O)OCC(COC(=O)CCCCCCCC)(COC(=O)CCCCCCCC)COC(=O)CCCCCCCC [Pentaerythritol tetrapelargonate]	g	62.00
CCCCCCCCC(=O)OCC(COC(=O)CCCCCCCC)OC(=O)CCCCCCCC [Glycerol tripelargonate]	g	60.00
